Target: T1, human GLP-1 receptor (human, UniProt P43220 24-463)
T1 construct: whole, on cells; Used as crude membranes of stably transfected HEK293 cells; also called hGLP1R; hGLP-1R
Experiment: SPA, [125I]-GLP-1 displacement, hGLP-1R membranes
pKi: −log10 of the molar value.
RESULT_TYPE: pKi

>>> experimental_result("YXEGTXTSDLSIXLDEKAQXEFIXYLIEGGPSSGAPPPS (not printed (the compound name of this Example is missing from the table of Examples 6-287)) [Example 183]")
8.39
>>> experimental_result("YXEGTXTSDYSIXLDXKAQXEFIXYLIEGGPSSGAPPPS (Aib2; αMeF(2F)6; αMeL13; Dap16; K17((2-[2-(2-Amino-ethoxy)-ethoxy]-acetyl)2-(γ-Glu)-CO-(CH2)16-CO2H); Aib20; D-Glu24; C-terminal NH2) [Example 210]")
8.80
>>> experimental_result("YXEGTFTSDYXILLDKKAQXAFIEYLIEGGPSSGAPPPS (Aib2; αMeS11; K17((2-[2-(2-Amino-ethoxy)-ethoxy]-acetyl)2-(γ-Glu)-CO-(CH2)18-CO2H); Aib20; C-terminal NH2) [Example 68]")
8.80
>>> experimental_result("YXEGTXTSDYSIXLDKKAQXEFIEYLIEGGPSSG (Aib2; αMeF6; αMeL13; K17((2-[2-(2-Amino-ethoxy)-ethoxy]-acetyl)2-(γ-Glu)-CO-(CH2)18-CO2H); Aib20; C-terminal NH2) [Example 123]")
8.88
>>> experimental_result("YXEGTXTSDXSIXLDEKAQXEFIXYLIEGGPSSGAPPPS (not printed (the compound name of this Example is missing from the table of Examples 6-287)) [Example 182]")
8.33
>>> experimental_result("YXEGTXTSDYSIXLDKKAQXSFIEYLIEGGPSSGAPPPS (Aib2; αMeF6; αMeL13; K17((2-[2-(2-Amino-ethoxy)-ethoxy]-acetyl)2-(γ-Glu)-CO-(CH2)18-CO2H); Aib20; C-terminal NH2) [Example 138]")
9.03
